- Test system: poly rA-poly rU (RNA, polymer) A/U
- protocol_description: UV thermal melting at 260 nm
- particulars: Na+ (sodium cacodylate, I = 0.05 M), pH 7.0, polynucleotide 20 µM nucleotide, r [compound]/[polynucleotide] = 0.3, error ±0.5 °C, per base
reported_endpoint: ΔTm (°C)

{"given_smiles": "N=C(N)Nc1ccc2c(c1)Cc1ccccc1-2", "reported_endpoint": "ΔTm", "unit_string": "°C", "recorded_number": "−1.0"}
{"given_smiles": "N=C(N)Nc1ccc2ccccc2c1", "reported_endpoint": "ΔTm", "unit_string": "°C", "recorded_number": 0}

====

- Test system: Tel22 (DNA, G4) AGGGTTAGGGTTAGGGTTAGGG
- protocol_description: fluorimetric titration, SPECFIT
- particulars: Na+ (sodium cacodylate, I = 0.1 M); Na-cacodylate buffer, pH 7.0; <0.1% DMSO; concentration as oligonucleotide
// values below are reported log K1

{"given_smiles": "N=C(N)Nc1ccc2c(c1)Cc1ccccc1-2", "log K1": "5.78 ± 0.08 log K"}
{"given_smiles": "N=C(N)Nc1ccc2c3c(cccc13)-c1ccccc1-2", "log K1": "5.26 ± 0.13 log K"}
{"given_smiles": "N=C(N)Nc1ccc2ccccc2c1", "log K1": "5.36 ± 0.07 log K"}
{"given_smiles": "NC(N)=Nc1cc2ccccc2c2ccccc12", "log K1": "5.61 ± 0.02 log K"}

====

// values below are reported ΔTm
- Test system: poly dAdT-poly dAdT (DNA, polymer) AT
- protocol_description: UV thermal melting at 260 nm
- particulars: Na+ (sodium cacodylate, I = 0.05 M), pH 7.0, polynucleotide 20 µM nucleotide, r [compound]/[polynucleotide] = 0.3, error ±0.5 °C, per base
reported_endpoint: ΔTm (°C)

{"given_smiles": "N=C(N)Nc1ccc2c(c1)Cc1ccccc1-2", "reported_endpoint": "ΔTm", "unit_string": "°C", "recorded_number": 0}
{"given_smiles": "N=C(N)Nc1ccc2ccccc2c1", "reported_endpoint": "ΔTm", "unit_string": "°C", "recorded_number": 0}
{"given_smiles": "N=C(N)Nc1ccc2c3c(cccc13)-c1ccccc1-2", "reported_endpoint": "ΔTm", "unit_string": "°C", "recorded_number": 0}
